src = PubChem BioAssay (NCATS)

Test system: CP286
Assay: qHTS profiling for inhibitors of Plasmodium falciparum proliferation (AID 504749); note: nearly all actives have a fitted effect of over 60% in size
Conditions: P. falciparum in erythrocytes, SYBR Green DNA, 72 h; series mostly up to 28.7 µM
Records with an inconclusive call do not appear. Calls of active or inactive are those of the source. Calls come from the whole dose curve; as a rule, active = well fitted inhibition curve with a large enough effect; inconclusive = small, poorly fitted or top-dose-only effect; inactive = flat fitted curve, though single readings scatter.
Returns: one label drawn from Yes (active), No (inactive)

Completed entries (count: 5):
compound="CCCN1CCCC2Cc3nc(N)ncc3CC21 (stereo unspecified)" cat=No
compound=CN(C)[C@@H](Cc1ccccc1)c1ccccc1 cat=No
compound=C=C1Nc2ccccc2C(=O)N1c1ccccc1C cat=No
compound="C[C@]12CC[C@H]3[C@@H](CC[C@@]45O[C@@H]4C(=O)C(C#N)C[C@]35C)[C@@H]1CC[C@@H]2O (stereo partly specified)" cat=No
compound="CCCCCCC(=O)O[C@H]1CC[C@H]2[C@@H]3CCC4CC(=O)C=C(C)[C@]4(C)[C@H]3CC[C@]12C (stereo partly specified)" cat=Yes

Q. Could you please tell me the result logged for [S]=[Sb][S][Sb]=[S] in this assay?
A. No

* * *

Experiment: qHTS assay for small molecule activators of the p53 signaling pathway (AID 651743); note: % of control where 0% means no effect
Details: HCT-116 p53RE-bla, beta-lactamase FRET ratio, 16 h; active compounds read high
Results filed as inconclusive are left out.
RECORDED_ENDPOINT: activation (%)
Answers are plain numbers, in %.

compound="CCOP(=S)(OCC)OC(Cl)C(Cl)(Cl)Cl (configuration not stated)" recorded_endpoint=activation endpoint_value=-0.781
compound=O=C(O)C(F)(F)C(F)(F)C(F)(F)C(F)(F)C(F)(F)C(F)(F)C(F)(F)C(F)(F)F recorded_endpoint=activation endpoint_value=1.7
compound=O=C(NC(=O)c1c(F)cccc1F)Nc1cc(Cl)c(OC(F)(F)C(F)F)c(Cl)c1 recorded_endpoint=activation endpoint_value=-1.27

Field: activation. Fill in for each record below.
1. O=C=Nc1ccc(Cl)cc1
2. CCOP(=S)(OCC)SCCl
3. CC(O)CN(CC(C)O)CC(C)O (configuration not stated)
4. CC1(C)[C@H](C(=O)O[C@H](C#N)c2cccc(Oc3ccccc3)c2)[C@@H]1C=C(Br)Br
5. CCOP(=O)(OCC)SCCSCC
6. COc1ccc(/C(=C/C(=O)N2CCOCC2)c2ccc(Cl)cc2)cc1OC
7. COCC(=O)N(c1c(C)cccc1C)[C@H](C)C(=O)OC

A.
3.11
0.473
-9.86
3.18
1.72
-3.46
-0.822

Field: activation. Fill in for each record below.
1. O=S(=O)(c1ccc(Cl)cc1)c1cc(Cl)c(Cl)cc1Cl
2. CNC(=O)O/N=C(\C)SC

A.
1. 8.22
2. -0.165

* * *

Target: Cytochrome P450 3A4 (Homo sapiens)
Test: qHTS Assay for Inhibitors and Substrates of Cytochrome P450 3A4 (AID 884); note: nearly all actives have a fitted effect of over 50% in size
Details: recombinant CYP3A4, Luciferin-PPXE luminescence; series mostly up to 57.1 µM
Inconclusive results are not listed. Active and inactive are the calls of the source. Calls come from the whole dose curve; as a rule, active = well fitted inhibition curve with a large enough effect; inconclusive = small, poorly fitted or top-dose-only effect; inactive = no such curve, though single readings can be large or run the other way.
Returns: one label drawn from active, inactive

Completed entries (count: 2):
compound="O=C1C=C2C(=CCOC2O)O1 (stereo not drawn)" cat=inactive
compound="COc1ccc(CC2c3cc(OC)c(OC)cc3CCN2C)cc1OC (stereo not drawn)" cat=inactive

For the next question, use this compound.
Q. Could you please tell me the result logged for CC1=CC[C@@H]2[C@@H](C1)c1c(O)cc(CC#CCCCNS(C)(=O)=O)cc1OC2(C)C in this assay?
A. active
